# system under test: biotinylated human Gal-3 (hGal-3) (Homo sapiens, UniProt P17931)
# Sequence (P17931 whole entry): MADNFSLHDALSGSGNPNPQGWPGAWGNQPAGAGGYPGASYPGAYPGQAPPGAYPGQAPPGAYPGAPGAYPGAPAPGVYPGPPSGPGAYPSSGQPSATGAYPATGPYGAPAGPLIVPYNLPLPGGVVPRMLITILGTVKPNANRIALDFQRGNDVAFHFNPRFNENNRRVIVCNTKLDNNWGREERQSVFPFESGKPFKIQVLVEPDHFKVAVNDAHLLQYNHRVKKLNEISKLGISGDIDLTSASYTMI
# protocol: Competitive binding assay: biotinylated hGal-3 binding to microplate-adsorbed asialofetuin (ASF), spectrophotometric
# run conditions: Table 10; hGal-3; read-out: IC50 (Gal-3 inhibition)
# Description: If not explicitly mentioned otherwise, the inhibition data refer to the binding of biotinylated human Gal-3 (hGal-3). Biological Assay Evaluation of Compound Inhibitory Activity (IC50) The inhibitory activity of compounds is determined in competitive binding assays. Briefly, compounds are serially diluted in DMSO (working dilutions). […] The calculated IC50 values may fluctuate depending on the daily assay performance. […]
reported endpoint: IC50 (nM)

CCN(CC1CC(F)(F)C1)C(=O)C(S[C@@H]1O[C@H](CO)[C@H](O)[C@H](n2cc(-c3cc(F)c(F)c(F)c3)nn2)[C@H]1OC)C1(O)CCC(F)(F)CC1 (some centres unmarked); 50
CCN(C(=O)C(S[C@@H]1O[C@H](CO)[C@H](O)[C@H](n2cc(-c3cc(F)c(F)c(F)c3)nn2)[C@H]1O)C1(O)CCOCC1)C1CCC1 (some centres unmarked); 30
CN(C(=O)C(S[C@@H]1O[C@H](CO)[C@H](O)[C@H](n2cc(-c3cc(F)c(F)c(F)c3)nn2)[C@H]1O)C1(O)CCOCC1)C1CCC1 (some centres unmarked); 50

a: CCN(Cc1ccccc1)C(=O)C(S[C@@H]1O[C@H](CO)[C@H](O)[C@H](n2cc(-c3cc(F)c(F)c(F)c3)nn2)[C@H]1OC)C1(O)CCC(F)(F)CC1 (some centres unmarked)
b: CCN(C(=O)[C@H](S[C@@H]1O[C@H](CO)[C@H](O)[C@H](n2cc(-c3cc(F)c(F)c(F)c3)nn2)[C@H]1OC)C1(O)CCC(F)(F)CC1)C1CC1 [Example 2.44.238R.I.]
Task: Input pair: a , b . Output: entry with lower IC50. // caller expects the label of the chosen entry
Result: a

====

pIC50: −log10 of the molar value.
Reported values: pIC50 for human Gal-1 (hGal-1) (Homo sapiens, UniProt P09382), one per item.
reported endpoint: pIC50

Here are 5 compounds together with their reported answers.
CN(CC1(F)CCCC1)C(=O)[C@@H](S[C@@H]1O[C@H](CO)[C@H](O)[C@H](n2cc(-c3cc(F)c(F)c(F)c3)nn2)[C@H]1O)C1(O)CCC(F)(F)CC1 [Example 2.44.223S.]; 7.10
CO[C@@H]1[C@@H](n2cc(-c3cc(F)c(F)c(F)c3)nn2)[C@@H](O)[C@@H](CO)O[C@H]1S[C@@H](C(=O)N(C)CC(C)(C)F)C1(O)CCC(F)(F)CC1 [Example 2.44.222R.I.]; 5.06
CN(CC1CC1)C(=O)[C@@H](S[C@@H]1O[C@H](CO)[C@H](O)[C@H](n2cc(-c3cc(F)c(F)c(F)c3)nn2)[C@H]1O)C1(O)CC(F)(F)C1 [Example 2.33.218S.]; 7.22
CN(C(=O)[C@@H](S[C@@H]1O[C@H](CO)[C@H](O)[C@H](n2cc(-c3cc(F)c(F)c(F)c3)nn2)[C@H]1O)C1(O)CCOCC1)c1ccccc1 [Example 2.41.231S.]; 7.30
CO[C@@H]1[C@@H](n2cc(-c3cc(F)c(F)c(F)c3)nn2)[C@@H](O)[C@@H](CO)O[C@H]1S[C@@H](C(=O)N1CCC(F)(F)CC1)C1(O)CCC2(CCCC2)CC1 [Example 2.71.226R.I.]; 5.96

1: Cc1cc(-c2cn([C@H]3[C@@H](O)[C@@H](CO)O[C@@H](S[C@H](C(=O)N(C)C4CC4)C4(O)CCC(F)(F)CC4)[C@@H]3O)nn2)cnc1F [Example 21.44.221S.]
2: CN(CC1CC1)C(=O)C(S[C@@H]1O[C@H](CO)[C@H](O)[C@H](n2cc(-c3cc(F)c(F)c(F)c3)nn2)[C@H]1O)C1(O)CCC(F)(F)CC1 (some centres unmarked) [Example 2.44.218.]
Task: Response body: label of entry with the larger pIC50; valid values 1 , 2 . // caller expects the label of the chosen entry
Result: 2

1: O=C([C@H](S[C@@H]1O[C@H](CO)[C@H](O)[C@H](n2cc(-c3cc(F)c(F)c(F)c3)nn2)[C@H]1O)C1(O)CCOCC1)N1CCCCC1 [Example 2.41.208R.]
2: CO[C@@H]1[C@@H](n2cc(-c3cc(F)c(F)c(F)c3)nn2)[C@@H](O)[C@@H](CO)O[C@H]1S[C@H](C(=O)N1CCC(F)(F)CC1)C1(O)CCC2(CCCC2)CC1 [Example 2.71.226S.I.]
Task: Response body: label of entry with the larger pIC50; valid values 1 , 2 . // caller expects the label of the chosen entry
Result: 2

A: CN(C)C(=O)C(S[C@@H]1O[C@H](CO)[C@H](O)[C@H](n2cc(-c3cc(F)c(F)c(F)c3)nn2)[C@H]1O)C1(O)CCC(F)(F)CC1 (single isomer, unassigned) [Example 2.44.201R.]
B: O=C([C@H](S[C@@H]1O[C@H](CO)[C@H](O)[C@H](n2cc(-c3cc(F)c(F)c(F)c3)nn2)[C@H]1O)C1(O)CCC(F)(F)CC1)N1CC(F)(F)C1 [Example 2.44.227R.]
C: CN(C(=O)[C@H](S[C@@H]1O[C@H](CO)[C@H](O)[C@H](n2cc(-c3cc(F)c(F)c(F)c3)nn2)[C@H]1O)C1(O)CCOCC1)c1ccccc1 [Example 2.41.231R.]
D: CN(CC(F)(F)F)C(=O)C(S[C@@H]1O[C@H](CO)[C@H](O)[C@H](n2cc(-c3cc(F)c(F)c(F)c3)nn2)[C@H]1O)C1(O)CCOCC1 (some centres unmarked) [Example 2.41.219.]
E: CN(CC(C)(C)C)C(=O)[C@@H](S[C@@H]1O[C@H](CO)[C@H](O)[C@H](n2cc(-c3cc(F)c(F)c(F)c3)nn2)[C@H]1O)C1(O)CCC1 [Example 2.34.228S.]
Task: Rank order required: pIC50, descending. Lab note: final answer is the ordered label list.
Result: E, D, A, B, C

I: CC(C)(O)[C@H](S[C@@H]1O[C@H](CO)[C@H](O)[C@H](n2cc(-c3cc(F)c(F)c(F)c3)nn2)[C@H]1O)C(=O)N1CCCC1 [Example 2.31.211S.]
II: CO[C@@H]1[C@@H](n2cc(-c3cc(F)c(F)c(F)c3)nn2)[C@@H](O)[C@@H](CO)O[C@H]1SC(C(=O)NCCC(C)(C)C)C1(O)CCC(F)(F)CC1 (some centres unmarked) [Example 2.44.252.I.]
III: CCN(C)C(=O)[C@@H](S[C@@H]1O[C@H](CO)[C@H](O)[C@H](n2cc(-c3cc(F)c(F)c(F)c3)nn2)[C@H]1O)C1(O)CC(F)(F)C1 [Example 2.33.203S.]
IV: CCN(C)C(=O)C(S[C@@H]1O[C@H](CO)[C@H](O)[C@H](n2cc(-c3cc(F)c(F)c(F)c3)nn2)[C@H]1O)C1(O)CCN(S(C)(=O)=O)CC1 (single isomer, unassigned) [Example 2.47.203S.]
Task: Order the entries by their reported pIC50, beginning at the minimum. Lab note: final answer is the ordered label list.
Result: II, I, III, IV
(II: 6.08, I: 6.28, III: 6.96, IV: 7.52)

I: CC(C)CN(C)C(=O)[C@@H](S[C@@H]1O[C@H](CO)[C@H](O)[C@H](n2cc(-c3cc(F)c(F)c(F)c3)nn2)[C@H]1O)C1(O)CCOCC1 [Example 2.41.200S.]
II: COCCN(C)C(=O)C(S[C@@H]1O[C@H](CO)[C@H](O)[C@H](n2cc(-c3cc(F)c(F)c(F)c3)nn2)[C@H]1O)C(C)(C)O (some centres unmarked) [Example 2.31.229.]
Task: Response body: label of entry with the larger pIC50; valid values I , II . // caller expects the label of the chosen entry
Result: I
(I: 6.96, II: 6.10)

====

# system under test: biotinylated human Gal-3 (hGal-3) (Homo sapiens, UniProt P17931)
# protocol: Competitive binding assay: biotinylated hGal-3 binding to microplate-adsorbed asialofetuin (ASF), spectrophotometric
# run conditions: Gal-3 inhibition, Table 5; read-out: IC50
reported endpoint: IC50 (nM)

CCN(C)C(=O)[C@@H](S[C@@H]1O[C@H](CO)[C@H](O)[C@H](n2cc(-c3cc(F)c(F)c(F)c3)nn2)[C@H]1O)C1(O)CCC1 [Example 2.34.203S.]; 120

I: CN(CC(F)(F)F)C(=O)[C@H](S[C@@H]1O[C@H](CO)[C@H](O)[C@H](n2cc(-c3cc(F)c(F)c(F)c3)nn2)[C@H]1O)C1(O)CCC1 [Example 2.34.219R.]
II: CCN(C)C(=O)C(S[C@@H]1O[C@H](CO)[C@H](O)[C@H](n2cc(-c3cc(F)c(F)c(F)c3)nn2)[C@H]1O)C1(O)CCC1 (stereo partly drawn)
Task: Input pair: I , II . Output: entry with lower IC50. // caller expects the label of the chosen entry
Result: II
(II: 400 nM, I: 7840 nM)

Where do these numbers come from? They come from patent US12410208B2.
